Listing of entries alongside the reported Abs. Max (nm) in EtOH.
Test: Optical properties of the CypH dyes: absorbance maximum and extinction coefficient in EtOH (Table 1)
Type: physicochemical
Settings: in EtOH
Record the value in nm, omitting the unit from your answer.

Record excerpt, results attached:
>  <compound>
CC(C)N(C)c1ccc(OC2=C(/C=C/C3=[N+](C)c4ccccc4C3(C)C)CCC/C2=C\C=C2\N(C)c3ccccc3C2(C)C)cc1 [CypH-12]

>  <reported endpoint>
Abs. Max (nm) in EtOH

>  <result number>
767

$$$$
>  <compound>
CCCN1/C(=C/C=C2\CCCC(/C=C/C3=[N+](CCC)c4ccccc4C3(C)C)=C2Oc2ccc(N(C)C(C)C)cc2)C(C)(C)c2ccccc21.[I-] [CypH-16]

>  <reported endpoint>
Abs. Max (nm) in EtOH

>  <result number>
771

$$$$
>  <compound>
CCN(C)c1ccc(OC2=C(/C=C/C3=[N+](C(C)C)c4ccccc4C3(C)C)CCC/C2=C\C=C2\N(C(C)C)c3ccccc3C2(C)C)cc1 [CypH-17]

>  <reported endpoint>
Abs. Max (nm) in EtOH

>  <result number>
770

$$$$
>  <compound>
CCN(C)c1ccc(OC2=C(/C=C/C3=[N+](CC(C)C)c4ccccc4C3(C)C)CCC/C2=C\C=C2\N(CC(C)C)c3ccccc3C2(C)C)cc1.[I-] [CypH-20]

>  <reported endpoint>
Abs. Max (nm) in EtOH

>  <result number>
774

$$$$
>  <compound>
CC(C)CN1/C(=C/C=C2\CCCC(/C=C/C3=[N+](CC(C)C)c4ccccc4C3(C)C)=C2Oc2ccc(N(C)C(C)C)cc2)C(C)(C)c2ccccc21.[I-] [CypH-13]

>  <reported endpoint>
Abs. Max (nm) in EtOH

>  <result number>
774

$$$$
>  <compound>
CCN1/C(=C/C=C2\CCCC(/C=C/C3=[N+](CC)c4ccccc4C3(C)C)=C2Oc2ccc(N(C)C)cc2)C(C)(C)c2ccccc21 [CypH-2]

>  <reported endpoint>
Abs. Max (nm) in EtOH

>  <result number>
764

$$$$
>  <compound>
CCN(C)c1ccc(OC2=C(/C=C/C3=[N+](C)c4ccccc4C3(C)C)CC/C2=C\C=C2\N(C)c3ccccc3C2(C)C)cc1.[Cl-] [CypH-8]

>  <reported endpoint>
Abs. Max (nm) in EtOH

>  <result number>
777

$$$$
>  <compound>
CCN(C)c1ccc(OC2=C(/C=C/C3=[N+](CC)c4ccccc4C3(C)C)CCC/C2=C\C=C2\N(CC)c3ccccc3C2(C)C)cc1 [CypH-7]

>  <reported endpoint>
Abs. Max (nm) in EtOH

>  <result number>
764

$$$$

Asked: Item under review: CCN1/C(=C/C=C2\CCCC(/C=C/C3=[N+](CC)c4ccccc4C3(C)C)=C2Oc2ccc(N(C)C(C)C)cc2)C(C)(C)c2ccccc21 [CypH-10] . Reported Abs. Max (nm) in EtOH?
Given back: 765

Asked: Request: CCN(C)c1ccc(OC2=C(/C=C/C3=[N+](C)c4ccccc4C3(C)C)CCC/C2=C\C=C2\N(C)c3ccccc3C2(C)C)cc1 [CypH-5]
Given back: 762
